From: the supplement of paper PMC9170038

Listing: apparent KD of K4 kissing-loop reporter of selected sequences
- System: K4 kissing-loop RNA reporter;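 note: bound reporter read as fluorescence of individual clusters on recovered sequencing chips by microscopy, with normalized cluster intensities fitted with a binding model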
- Experiment Notes: apparent KD of K4 kissing-loop reporter; higher = weaker reporter binding
- Condition Description: Eterna round: R107; input ligand: FMN 200 uM

[
  {
    "Macromolecule Sequence": "AAUAAAAUCACGGCCGCCACUGAUUAGCAUAUUAGGAGUGAUGUUUCUAUGACUAUAUAAUUGAACAGGACCGGGUGAAUAUUUA [#20 K4 Tryptophan B Exclusion]",
    "System Under Test": "K4 kissing-loop RNA reporter",
    "apparent KD of K4 kissing-loop reporter (nM)": 424
  },
  {
    "Macromolecule Sequence": "GCAGUGAUGUUGCGCGGGUACGGUGGAGUGCGAGGACCGGUACGGCCGCCACUCGUACGGAACUGGCUAAUAUAUGGAUAGGUGA [VI]",
    "System Under Test": "K4 kissing-loop RNA reporter",
    "apparent KD of K4 kissing-loop reporter (nM)": 397
  },
  {
    "Macromolecule Sequence": "AUCAUAUCUAGUCAGCCCAGUGAUGUUGGGCGAGGACCGGUACGGCCGCCACUCGCUUCGUUGCGGUGGCUGGCGUUACGACAAA [Inveusma]",
    "System Under Test": "K4 kissing-loop RNA reporter",
    "apparent KD of K4 kissing-loop reporter (nM)": 130
  },
  {
    "Macromolecule Sequence": "GGGAGGAACUGAGGAUAUUCGAAGAAAUAUAGUGAUGUUAUGUAAGGAGGAGGAGGGAGGGAGGAAGGAGAAGGCAGAAGAGGAG [ExFMNB.A]",
    "System Under Test": "K4 kissing-loop RNA reporter",
    "apparent KD of K4 kissing-loop reporter (nM)": 428
  },
  {
    "Macromolecule Sequence": "AUUUUUAACUGAGGAUAUCGAAUUUAUGUAGUGAUGUUACUUUAAAUUAAAAUUUUAAUUUCUUAACGAGAAGGCAGAAUAAUUA [JR_SSFMNB_Sub025]",
    "System Under Test": "K4 kissing-loop RNA reporter",
    "apparent KD of K4 kissing-loop reporter (nM)": 111
  },
  {
    "Macromolecule Sequence": "UGUGUUUACCUGACCCAGUGAUGUUGGGAAGGAGCGUGCGAAAGCACAGGUAGGUCGCUCAACCUAAAGUCAGGUGAGCACUAAA [#SwitchBubble 9 #K4Early]",
    "System Under Test": "K4 kissing-loop RNA reporter",
    "apparent KD of K4 kissing-loop reporter (nM)": 407
  },
  {
    "Macromolecule Sequence": "UAGCAUUUGCUCGAGUGAUGUUCGAGCGAAGGAGCGCGAGAAAUCGCAGGUAGGUCGCGCUCGAACUAUGAGCGAUCAUUUAUUA [Arg A Ex t2c]",
    "System Under Test": "K4 kissing-loop RNA reporter",
    "apparent KD of K4 kissing-loop reporter (nM)": 284
  },
  {
    "Macromolecule Sequence": "AUUUUUUACAGAAGGAGCGUGUUUUUAUAAUCAUUUAUCUUAGCGAGUGAUGUUCGCUUUACACAGGUAGGUCGCUGUUUAUUUA [JR_Nu_ExcArginiB_Sub028]",
    "System Under Test": "K4 kissing-loop RNA reporter",
    "apparent KD of K4 kissing-loop reporter (nM)": 119
  },
  {
    "Macromolecule Sequence": "UGUACCGAGUCAGGAUAUCAACGACUGACAAAGUCGGUCGAAUAUCCAGUGAUGUUGGAAAAUAACUGAGAAGGGACUUGGUACU [FmnBS 13 #SwitchBubble #StaticStem]",
    "System Under Test": "K4 kissing-loop RNA reporter",
    "apparent KD of K4 kissing-loop reporter (nM)": 194
  },
  {
    "Macromolecule Sequence": "UCUUUACCGGGAAGGAGCGUGAAUGAGAAUGGAUAUAGUGAUGUUAUGUAUACGAACGAAUCGCAGGUAGGUCGCCCGGAUCCCU [SSArgB.aB]",
    "System Under Test": "K4 kissing-loop RNA reporter",
    "apparent KD of K4 kissing-loop reporter (nM)": 1150
  },
  {
    "Macromolecule Sequence": "CUUACCCAUCGGAUGGAUCAACUGCACACGAAGGAUAUACACACGGGUAGAAGGUCGGGAUUCCAGUGAUGUUGGAUGGUACGAC [theeternabot_exclusion_KL_FMN_A_29]",
    "System Under Test": "K4 kissing-loop RNA reporter",
    "apparent KD of K4 kissing-loop reporter (nM)": 87.2
  },
  {
    "Macromolecule Sequence": "UGACUGGACUGAAGGAGCGCGCGAGACAAAGUCUCGAACUUCUAGUGAUGUUAGAAAAUAACGCAGGUAGGUCGCAGUCUAGUCU",
    "System Under Test": "K4 kissing-loop RNA reporter",
    "apparent KD of K4 kissing-loop reporter (nM)": 165
  }
]
